assay: Pharmacokinetics in adult Sprague-Dawley rats; format: in vivo; details: male, Sprague-Dawley, rat, whole blood; PO 25 mg/kg, average n = 4
readout.name: MRT (h)
Hi! Could you send only the number? It should be in h, unit omitted.

Task item: Any idea what MRT was measured for O=C(NO)c1ncc(COc2ccc(F)cc2)c(CO)c1O ?
Reply: 3.44

###

assay: Pharmacokinetics in adult Sprague-Dawley rats; assay type: in vivo; conditions: male, Sprague-Dawley, rat, whole blood; PO 25 mg/kg, average n = 4
readout.name: Tmax (min)
Reply with just the number (in min).

Task item: Sample O=C(NO)c1ncc(COc2ccc(F)cc2)c(CO)c1O — what was its Tmax?
Reply: 19.8

###

experiment: Pharmacokinetics in adult Sprague-Dawley rats; type: in vivo; details: male, Sprague-Dawley, whole blood; PO 25 mg/kg, rat blood, average n = 4
readout.name: AUC(0-t) (µM·h)
// return numeric value only (unit: µM·h, not printed)

Task item: For the compound shown here, O=C(NO)c1ncc(COc2ccc(F)cc2)c(CO)c1O [Compound 2] , give the reported AUC(0-t).
Reply: 24.2

###

Assay: Cell viability assay (MTT)
Assay type: cell-based
Details: human; overnight incubation, viability relative to DMSO
Protocol: Following incubation, media was replaced and cells incubated for 4 h with 100 μL of phenol red-free DMEM containing 0.5 mg/mL of MTT (3-[4,5-dimethylthiazol-2-yl]-2,5-diphenyltetrazolium bromide; thiazolyl blue; catalog no. M5655, Sigma-Aldrich). Afterwards, media was removed and converted dye solubilized with 100 μL acidic isopropanol (0.06 N) and absorbance measured at a wavelength of 570 nm with background subtraction at 650 nm. […]
readout.name: log10(CC50) (log10 of the value in µM)
// stored as log10 of CC50 expressed in µM

| molecule | test.value |
| --- | --- |
| O=C(NO)c1ncc(COc2ccc(F)c(Cl)c2)c(CO)c1O [Compound 3] | 1.04 |
| O=C(NO)c1ncc(CCc2ccc(F)cc2)c(CO)c1O [Compound 6] | 1.59 |
| O=C(NO)c1ncc(COc2ccc(F)cc2)c(CO)c1O [Compound 2] | 1.70 |

Task item: Give its log10(CC50) value. Item: COc1c(C(=O)NO)ncc(C(=O)NCc2ccc(F)cc2)c1CO [Compound 19]
Reply: 0.82

Task item: What does the data say about its log10(CC50)? Entry: O=C(NO)c1ncc(CNc2ccc(F)cc2)c(CO)c1O [Compound 1]
Reply: 2.08

###

List of LDLR Fold Change 10 μM values.
tested on: LDLR protein; experiment: Western blot analysis, relative quantification of LDLR protein levels; assay type: cell-based, human; conditions: 10 μM, overnight; hepatoma cells (HepG2, FIG. 13); normalized to actin, vehicle (DMSO) = 1
I only need the number, thanks.

| compound | readout.name | test.value |
| --- | --- | --- |
| O=C(NCc1ccc(F)c(Cl)c1)c1cnc(C(=O)NO)c(O)c1CO [Compound 4] | LDLR Fold Change 10 μM | 2.7 |
| Cc1ncc(COc2ccc(F)cc2)c(CO)c1O [Compound 27] | LDLR Fold Change 10 μM | 1.2 |
| Cc1ncc(COc2ccc(F)cc2)c2c1OC(C)(C)OC2 [Compound 26] | LDLR Fold Change 10 μM | 1.5 |
| O=C(NO)c1ncc(CCc2ccc(F)cc2)c(CO)c1O [Compound 6] | LDLR Fold Change 10 μM | 2.3 |
| CC1(C)OCc2c(CNCc3ccc(F)c(Cl)c3)cnc(C(=O)NO)c2O1.Cl [Compound 5] | LDLR Fold Change 10 μM | 2.4 |

Task item: Which LDLR Fold Change 10 μM value is on record for O=C(NO)c1ncc(COc2ccc(F)cc2)c(CO)c1O [Compound 2] ?
Reply: 6.3

Task item: Entry O=C(NO)c1ncc(CNc2ccc(F)cc2)c(CO)c1O [Compound 1] has what LDLR Fold Change 10 μM?
Reply: 6.9

Task item: For COC(=O)c1ncc(COCc2ccc(OC)cc2)c(C)c1O [Compound 8] , what is its reported LDLR Fold Change 10 μM?
Reply: 1.7

Task item: I am curious: what LDLR Fold Change 10 μM value has been reported for COC(=O)c1ncc(COCc2ccc(OC)cc2)c2c1OC(C)(C)OC2 [Compound 10] ?
Reply: 1.2

Task item: Sample O=C(NO)c1ncc(COc2ccc(F)c(Cl)c2)c(CO)c1O [Compound 3] — what was its LDLR Fold Change 10 μM?
Reply: 5.6

Task item: Can you look up the measured LDLR Fold Change 10 μM of COC(=O)c1ncc(C(=O)NCc2ccc(F)c(Cl)c2)c2c1OC(C)(C)OC2 [Compound 25] for me?
Reply: 1.9

Task item: // query LDLR Fold Change 10 μM value for entry COc1ccc(COCc2cnc(C)c3c2COC(C)(C)O3)cc1 [Compound 9]
Reply: 1.4

###

experiment: Pharmacokinetics in adult Sprague-Dawley rats; assay type: in vivo; settings: male, Sprague-Dawley, rat, whole blood; iv 5 mg/kg, average n = 4; read-out: Clearance
readout.name: clearance (mL/min)
Respond with the bare value in mL/min.

Task item: Recorded clearance for O=C(NO)c1ncc(COc2ccc(F)cc2)c(CO)c1O , please?
Reply: 2.2

###

assay: Pharmacokinetics in adult Sprague-Dawley rats; format: in vivo; details: male, Sprague-Dawley, whole blood; iv 5 mg/kg, rat blood, average n = 4
readout.name: AUC

Task item: What does the data say about its AUC? Entry: O=C(NO)c1ncc(COc2ccc(F)cc2)c(CO)c1O [Compound 2]
Reply: 31.9 µM·h

###

test: in vitro; details: male, Sprague Dawley, rat, microsomes, pH 7.4
readout.name: half-life at 1 μM (h)
# value in h; strip the unit string

Task item: Can you look up the measured half-life at 1 μM of O=C(NO)c1ncc(COc2ccc(F)cc2)c(CO)c1O [Compound 2] for me?
Reply: 6.73

###

test: Pharmacokinetics in adult Sprague-Dawley rats; assay type: in vivo; details: male, Sprague-Dawley, whole blood; PO 25 mg/kg, rat blood, average n = 4
readout.name: AUC
Please don't drop the unit; write it after the number.

Task item: Need AUC of O=C(NO)c1ncc(COc2ccc(F)cc2)c(CO)c1O [Compound 2] , thanks.
Reply: 24.3 µM·h

###

assay: in vitro; details: male, Sprague Dawley, rat, microsomes, pH 7.4
readout.name: microsomal CLint at 1 μM (µL/min/mg)
Numeric only. Scale: µL/min/mg

Task item: Value lookup for microsomal CLint at 1 μM; key = O=C(NO)c1ncc(COc2ccc(F)cc2)c(CO)c1O
Reply: 6.19

Origin of measurements: patent US11400082B2
